# System: CP256
# method: qHTS profiling for inhibitors of Plasmodium falciparum proliferation (AID 504749); further: nearly all actives have a fitted effect of over 60% in size
# condition.label: P. falciparum in erythrocytes, SYBR Green DNA, 72 h; series mostly up to 28.7 µM
Results filed as inconclusive are left out. Active and inactive are the calls of the source. The call rests on the fitted dose curve; in most records, active means well fitted inhibition curve with a large enough effect; inconclusive means small, poorly fitted or top-dose-only effect; inactive means flat fitted curve, though single readings scatter.
Classes used: y = active, n = inactive

CC(C)(O)c1ccccc1CC[C@H](SCC1(CC(=O)O)CC1)c1cccc(/C=C/c2ccc3ccc(Cl)cc3n2)c1 ... n
O=C1c2cccc3c2[C@@H](CCC3)CN1[C@@H]1CN2CCC1CC2 ... n
C[C@@H](C(=O)O)c1ccc(-c2ccccc2)c(F)c1 ... n
CCCCC(=O)N(Cc1ccc(-c2ccccc2-c2nn[nH]n2)cc1)C(C(=O)O)C(C)C (configuration not stated) ... n
CC(C)C[C@@H](NC(=O)[C@H](Cc1ccccc1)NC(=O)c1cnccn1)B(O)O ... y
CC(=O)[C@H]1CC[C@H]2C3CC=C4C[C@@H](O)CC[C@]4(C)C3CC[C@]12C (some centres not stated) ... n
COC(=O)[C@@H]1[C@@H]2C[C@H]3c4[nH]c5ccccc5c4CCN3C[C@@H]2CC[C@@H]1O ... n

###

# method: Stat Signaling Pathway (AID 446);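 further: ME-180 cervical cancer cells given 40 pM IL-6 alongside compound; SIE-controlled beta-lactamase reporter measured as 460/530 nm FRET emission ratio; on the % scale 0 is the no-effect control and ±100 the full control effect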
# condition.label: ME-180 (cervical carcinoma) SIE beta-lactamase reporter, IL-6 stimulated, 5 h; at 38 µM (top of the series)
Records with an inconclusive call do not appear.
property: activity, negative = inhibition (%)

O=C(OCCN1CCCCC1)c1c[nH]c2ccccc12 ... -6.33
COc1cccc(OC)c1OCCNC[C@@H]1COc2ccccc2O1 ... 9.55
O=C(O)[C@H]1CCCNC1 ... -8.68
C[N+](C)(C)CCC(=O)c1cccc2ccccc12 ... -81.5
Cc1cccc([C@@H]2CN(C)CCc3c2cc(O)c(O)c3Cl)c1 ... 11.4
CCCCOc1cc(C[C@@H]2CNC(=O)N2)ccc1OC ... 24.5
O=C(Nc1cc(C(=O)Nc2ccc(S(=O)(=O)O)cc2S(=O)(=O)O)cc(C(=O)Nc2ccc(S(=O)(=O)O)cc2S(=O)(=O)O)c1)Nc1cc(C(=O)Nc2ccc(S(=O)(=O)O)cc2S(=O)(=O)O)cc(C(=O)Nc2ccc(S(=O)(=O)O)cc2S(=O)(=O)O)c1 ... -91.7
C=C[C@H](N)CCC(=O)O ... -14.6
CC(C)NC[C@@H](O)COc1ccc(CCOCC2CC2)cc1 ... 21.1
O=Nc1c(-c2c(O)[nH]c3ccccc23)[nH]c2ccccc12 ... -75
CO[C@]1(C2=NCCN2)COc2ccccc2O1 ... 13.6
OCc1cc([C@@H](O)CNCCCCCCOCCCCc2ccccc2)ccc1O ... -26.7
CNCC[C@H](Oc1ccccc1OC)c1ccccc1 ... 4.82
Cn1cnc2c(NC3CCCC3)ncnc21 ... 11.1
CC(N)=NCCCC[C@H](N)C(=O)O ... -14
COc1cc2nc(N3CCN(C(=O)[C@H]4CCCO4)CC3)nc(N)c2cc1OC ... 7.77
Cc1ccc(/C(=C/CN2CCCC2)c2ccccn2)cc1 ... -0.742
CSc1ccc2c(c1)[C@H](N1CCN(C)CC1)Cc1ccccc1S2 ... -17.1
Oc1cc2c(cc1O)[C@H](c1ccccc1)CNCC2 ... 0.446
Cc1cccc(C)c1NC(=O)C[N+](C)(C)C ... 8.11
N[C@H](CCC(=O)N[C@H](CSN=O)C(=O)NCC(=O)O)C(=O)O ... 14.7
COC(=O)C1=C(C)NC(C)=C([N+](=O)[O-])[C@H]1c1ccccc1C(F)(F)F ... 13.2
COc1[nH]c2ccc(F)cc2c1C(=O)OCC1CCN(CCNS(C)(=O)=O)CC1 ... 16.9
CC(N)=NCc1cccc(CN)c1 ... 3.99
CN1CCN2c3ccccc3Cc3ccccc3[C@@H]2C1 ... -1.53
O=C1CC[C@H](N2C(=O)c3ccccc3C2=O)C(=O)N1 ... -18.4
N[C@]1(C(=O)O)CCc2cc(C(=O)O)ccc21 ... -13
COC(=O)c1c(-c2cc(OC)c(OC)c(OC)c2)c2ccnc(OCc3ncccn3)c2c(=O)n1Cc1ccnc(C)c1 ... -8.52
C[C@@H]1CCN=C(N)S1 ... 9.1
COc1ccc2c(c1)c(CC(=O)N1CCOCC1)c(C)n2C(=O)c1ccc(Cl)cc1 ... -6.17
CCn1ccnc1C[C@@H]1COc2ccccc2O1 ... -3.71
Fc1ccc(C(c2ccc(F)cc2)N2CCN(C/C=C\c3ccccc3)CC2)cc1 ... -6.11
O=C(O)c1cc(=O)c2ccc(Cl)cc2[nH]1 ... 42.7
CCOC(=O)C1=C(C)NC(C)=C(C(=O)OC)[C@H]1c1cccc([N+](=O)[O-])c1 ... 17.9
CC[C@H](C)N(C)C(=O)c1cc2ccccc2c(-c2ccccc2Cl)n1 ... 8.11
N[C@@H]1CCN(O)C1=O ... 21.4
NC(N)=NN=Cc1c(Cl)cccc1Cl ... -0.683
N[C@H](Cc1ccc(Cl)cc1)C(=O)O ... -4.9
